System: SH-SY5Y
Assay Details: Cytotoxicity against human SH-SY5Y cells assessed as decrease in neutral red dye uptake at 50 uM incubated for 24 hrs relative to control
Format: toxicity, cell-based
Parameters: scale not given: the % may be the effect or the level left
Reported Activity values for a set of compounds
Numeric answer only, unit % assumed.

Previously resolved entries follow.
# lookup: Activity of Fc1ccc(-c2nc(-c3nnnn3Cc3ccccc3)cc3c2[nH]c2ccccc23)cc1 56.1

Quick check: Activity of CN(C)c1ccc(-c2nc(-c3nnnn3Cc3ccccc3)cc3c2[nH]c2ccccc23)cc1 ? 80.5

Any idea what its Activity is? The compound is c1ccc(Cn2nnnc2-c2cc3c([nH]c4ccccc43)c(-c3ccccc3)n2)cc1 65.9

Please look at the following compound next.
What Activity value was documented for this compound, Clc1ccccc1-c1nc(-c2nnnn2Cc2ccccc2)cc2c1[nH]c1ccccc12 ? 81.7
